- assayTarget: human OX2 receptor (Homo sapiens)
- Construct: expressed in transfected cells
- Sequence (O43614 1-444): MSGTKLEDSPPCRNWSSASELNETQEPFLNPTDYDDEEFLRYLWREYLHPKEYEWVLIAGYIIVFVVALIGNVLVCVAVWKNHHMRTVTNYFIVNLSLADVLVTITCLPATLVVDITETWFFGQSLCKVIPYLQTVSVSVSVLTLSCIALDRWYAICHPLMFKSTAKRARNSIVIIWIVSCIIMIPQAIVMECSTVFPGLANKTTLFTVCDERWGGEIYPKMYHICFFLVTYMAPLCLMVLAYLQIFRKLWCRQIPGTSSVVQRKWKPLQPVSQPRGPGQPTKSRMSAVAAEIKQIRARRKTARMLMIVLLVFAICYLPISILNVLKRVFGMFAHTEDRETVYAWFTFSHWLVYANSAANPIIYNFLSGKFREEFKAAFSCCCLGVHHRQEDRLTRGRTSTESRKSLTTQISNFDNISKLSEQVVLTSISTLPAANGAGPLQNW
- procedureDetails: Measurement of orexin type 2 receptor agonist activity (calcium fluorescence, Fluo-4, FDSS)
- Assay type: cell-based
- condition: 3 uM test compound; CHO cells expressing human OX2 receptor; DMSO = 0%, 10 nM orexin A (human) = 100%
quantityName: OX2R agonist activity (3 uM, %)

>  <compound>
CS(=O)(=O)N[C@H]1Cc2cn(-c3noc4cccc(-c5c(F)cccc5F)c34)c(=O)n2C1

>  <quantityName>
OX2R agonist activity (3 uM, %)

>  <numericReadout>
97

$$$$
>  <compound>
CCS(=O)(=O)N[C@@H]1CN2C(=O)N(c3noc4cccc(-c5c(F)cccc5F)c34)C[C@@H]2[C@@H]1F (relative stereo)

>  <quantityName>
OX2R agonist activity (3 uM, %)

>  <numericReadout>
105

$$$$
>  <compound>
CCS(=O)(=O)N[C@@H]1CN2C(=O)N(c3noc4ccc(F)c(-c5c(F)cccc5F)c34)CC[C@@H]2C1(F)F

>  <quantityName>
OX2R agonist activity (3 uM, %)

>  <numericReadout>
104

$$$$
>  <compound>
COc1cc(-c2c(F)cc(F)cc2F)c2c(N3CC[C@H]4N(C[C@@H](NS(C)(=O)=O)C4(F)F)C3=O)noc2n1

>  <quantityName>
OX2R agonist activity (3 uM, %)

>  <numericReadout>
104

$$$$
>  <compound>
Cc1cc2onc(-n3cc4n(c3=O)C[C@@H](NS(=O)(=O)C3CC3)C4(F)F)c2c(-c2c(F)cc(F)cc2F)n1

>  <quantityName>
OX2R agonist activity (3 uM, %)

>  <numericReadout>
103

$$$$
>  <compound>
CCS(=O)(=O)N[C@@H]1CN2C(=O)N(c3noc4ccc(F)c(-c5c(F)cccc5F)c34)C[C@@H]2C1(F)F

>  <quantityName>
OX2R agonist activity (3 uM, %)

>  <numericReadout>
105

$$$$
>  <compound>
CCS(=O)(=O)N[C@@H]1Cn2c(cn(-c3noc4cc(C(F)F)cc(-c5c(F)cc(F)cc5F)c34)c2=O)C1(F)F

>  <quantityName>
OX2R agonist activity (3 uM, %)

>  <numericReadout>
97

$$$$
>  <compound>
CS(=O)(=O)N[C@H]1C[C@H]2CCN(c3noc4cc(F)cc(-c5c(F)cccc5F)c34)C(=O)N2C1

>  <quantityName>
OX2R agonist activity (3 uM, %)

>  <numericReadout>
101

$$$$
>  <compound>
CS(=O)(=O)N[C@@H]1Cn2c(cn(-c3noc4cc(CO)c(F)c(-c5c(F)cc(F)cc5F)c34)c2=O)C1(F)F

>  <quantityName>
OX2R agonist activity (3 uM, %)

>  <numericReadout>
104

$$$$
>  <compound>
CCS(=O)(=O)N[C@@H]1Cn2c(cn(-c3noc4cccc(-c5c(F)cccc5F)c34)c2=O)[C@@H]1F (relative stereo)

>  <quantityName>
OX2R agonist activity (3 uM, %)

>  <numericReadout>
103

$$$$
>  <compound>
CCS(=O)(=O)NC1Cn2c(cn(-c3noc4cc(F)cc(-c5c(F)cc(F)cc5F)c34)c2=O)CC1(F)F (single isomer, unassigned)

>  <quantityName>
OX2R agonist activity (3 uM, %)

>  <numericReadout>
106

$$$$
>  <compound>
CCS(=O)(=O)N[C@@H]1Cn2c(cn(-c3noc4cc(C)c(F)c(-c5c(F)cc(F)cc5F)c34)c2=O)C1(F)F

>  <quantityName>
OX2R agonist activity (3 uM, %)

>  <numericReadout>
103

$$$$
>  <compound>
COCc1cc(-c2c(F)cccc2F)c2c(N3CC[C@H]4N(C[C@@H](NS(C)(=O)=O)C4(F)F)C3=O)noc2c1

>  <quantityName>
OX2R agonist activity (3 uM, %)

>  <numericReadout>
99

$$$$
>  <compound>
CCS(=O)(=O)N[C@@H]1Cn2c(cn(-c3noc4cc(Cl)c(F)c(-c5c(F)cccc5F)c34)c2=O)C1(F)F

>  <quantityName>
OX2R agonist activity (3 uM, %)

>  <numericReadout>
104

$$$$
>  <compound>
COCc1cc(-c2c(F)cccc2F)c2c(-n3cc4n(c3=O)C[C@@H](NS(C)(=O)=O)C4(F)F)noc2c1

>  <quantityName>
OX2R agonist activity (3 uM, %)

>  <numericReadout>
94

$$$$
>  <compound>
O=C1N(c2noc3cccc(-c4ncc(F)cc4F)c23)CC[C@H]2N1C[C@@H](NS(=O)(=O)C1CC1)C2(F)F

>  <quantityName>
OX2R agonist activity (3 uM, %)

>  <numericReadout>
107

$$$$
>  <compound>
O=C1N(c2noc3ccc(F)c(-c4c(F)cccc4F)c23)CC[C@H]2N1C[C@@H](NS(=O)(=O)C1CC1)C2(F)F

>  <quantityName>
OX2R agonist activity (3 uM, %)

>  <numericReadout>
101

$$$$
>  <compound>
CCS(=O)(=O)N[C@H]1C[C@@H]2CN(c3noc4cccc(-c5c(F)cccc5F)c34)C(=O)N2C1

>  <quantityName>
OX2R agonist activity (3 uM, %)

>  <numericReadout>
94

$$$$
>  <compound>
CS(=O)(=O)N[C@@H]1CN2C(=O)N(c3noc4cc(OC(F)F)cc(-c5c(F)cc(F)cc5F)c34)C[C@@H]2C1(F)F

>  <quantityName>
OX2R agonist activity (3 uM, %)

>  <numericReadout>
103

$$$$
>  <compound>
CS(=O)(=O)N[C@@H]1CN2C(=O)N(c3noc4cc(Cl)cc(-c5c(F)cccc5F)c34)C[C@@H]2C1(F)F

>  <quantityName>
OX2R agonist activity (3 uM, %)

>  <numericReadout>
91

$$$$
>  <compound>
O=C1N(c2noc3cccc(-c4c(F)cccc4F)c23)C[C@H]2N1C[C@@H](NS(=O)(=O)C1CC1)C2(F)F

>  <quantityName>
OX2R agonist activity (3 uM, %)

>  <numericReadout>
95

$$$$
>  <compound>
CCOc1cc2onc(N3CC[C@H]4N(C[C@@H](NS(C)(=O)=O)C4(F)F)C3=O)c2c(-c2c(F)cccc2F)c1F

>  <quantityName>
OX2R agonist activity (3 uM, %)

>  <numericReadout>
102

$$$$
>  <compound>
CCS(=O)(=O)N[C@H]1C[C@H]2CN(c3nsc4cccc(-c5c(F)cccc5F)c34)C(=O)N2C1

>  <quantityName>
OX2R agonist activity (3 uM, %)

>  <numericReadout>
108

$$$$
>  <compound>
COCc1cc(-c2c(F)cc(F)cc2F)c2c(-n3cc4n(c3=O)C[C@@H](NS(C)(=O)=O)C4(F)F)noc2c1

>  <quantityName>
OX2R agonist activity (3 uM, %)

>  <numericReadout>
90

$$$$
>  <compound>
CCS(=O)(=O)N[C@H]1C[C@H]2CN(c3noc4cccc(-c5sccc5C)c34)C(=O)N2C1

>  <quantityName>
OX2R agonist activity (3 uM, %)

>  <numericReadout>
84

$$$$
>  <compound>
CCS(=O)(=O)N[C@@H]1Cn2c(cn(-c3noc4cc(Cl)c(F)c(-c5c(F)cc(F)cc5F)c34)c2=O)C1(F)F

>  <quantityName>
OX2R agonist activity (3 uM, %)

>  <numericReadout>
106

$$$$
>  <compound>
Cc1cc2onc(-n3cc4n(c3=O)C[C@@H](NS(=O)(=O)N(C)C)C4(F)F)c2c(-c2c(F)cc(F)cc2F)n1

>  <quantityName>
OX2R agonist activity (3 uM, %)

>  <numericReadout>
108

$$$$
